- System: LG0703-F948-PDC complex spheroid viability;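 further: spheroids exposed to agents for seven days before readout; 100% = DMSO vehicle control wells as normalization base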
- assay-overview: Anticancer human tumor LG0703-F948-PDC patient-derived lung adenocarcinoma cell line growth inhibition
- condition-parameters: second compound 3.16 µM; first compound 1 µM; active compounds read low
viability, T/C values by entry

Here's what some known entries look like.
molecule	tested-on	viability, T/C
CC(C)c1c(-c2ccccc2)nc2c(C#N)c[nH]n2c1=O + NC1CC1c1ccc(-c2cccc(O)c2)cc1	LG0703-F948-PDC complex spheroid viability	99.8%
O=C(c1cc(Cc2n[nH]c(=O)c3ccccc23)ccc1F)N1CCN(C(=O)C2CC2)CC1 + NC1CCC(NC2CC2c2ccccc2)CC1	LG0703-F948-PDC complex spheroid viability	107%
O=C(C=Cn1cnc(-c2cc(C(F)(F)F)cc(C(F)(F)F)c2)n1)NNc1cnccn1 + NC1CCC(NC2CC2c2ccccc2)CC1	LG0703-F948-PDC complex spheroid viability	30.2%
O=C(c1cc(Cc2n[nH]c(=O)c3ccccc23)ccc1F)N1CCN(C(=O)C2CC2)CC1 + NC1CC1c1ccc(-c2cccc(O)c2)cc1	LG0703-F948-PDC complex spheroid viability	102%

Req: Note viability, T/C for the molecule shown: CC1COCCN1c1cc(C2(S(C)(=N)=O)CC2)nc(-c2ccnc3[nH]ccc23)n1 (stereo unspecified) + NC1CCC(NC2CC2c2ccccc2)CC1
Resp: 96.4%

Req: Note viability, T/C for the molecule shown: CC1(C)CCC(CN2CCN(c3ccc(C(=O)NS(=O)(=O)c4ccc(NCC5CCOCC5)c([N+](=O)[O-])c4)c(Oc4cnc5[nH]ccc5c4)c3)CC2)=C(c2ccc(Cl)cc2)C1 + NC1CC1c1ccc(-c2cccc(O)c2)cc1
Resp: 111%
